meta.source: the NIST ThermoML archive (doi:10.1016/j.jct.2018.05.003)

- Measurement description: activity coefficient (dimensionless); of the first substance listed, at infinite dilution; xn = mol fraction of the nth substance listed
- Study conditions: 298.15 K; 101.33 kPa; Liquid; Chromatography; x1 = 0
Measured endpoint: activity coefficient

- CC(C)=O [acetone] + CCCCCOC(C)=O: 1.19
- CCCCCCC [heptane] + CCCCCOC(C)=O: 1.9
- CC(C)O [propan-2-ol] + CCCCCOC(C)=O: 2.86

----------
- Measurement description: activity coefficient (dimensionless); of the first substance listed, at infinite dilution; xn = mol fraction of the nth substance listed
- Study conditions: 298.15 K; 101.33 kPa; Liquid; Chromatography; x1 = 0
Threshold 0.9. activity coefficient below it: 1. activity coefficient at it or above: 0.

• CC(Cl)CCl (centres undefined) [1,2-dichloropropane] + CCCCCOC(C)=O = 1
• CCCc1ccccc1 [propylbenzene] + CCCCCOC(C)=O = 0
• Brc1ccccc1 [bromobenzene] + CCCCCOC(C)=O = 1
• CCCO [propan-1-ol] + CCCCCOC(C)=O = 0
• CC(C)Br [2-bromopropane] + CCCCCOC(C)=O = 1
• C[N+](=O)[O-] [nitromethane] + CCCCCOC(C)=O = 0
• CCCCCCCC [octane] + CCCCCOC(C)=O = 0
